EGFR (human) (UniProt P00533) data, read-out IC50
Sequence (P00533 whole entry, looked up): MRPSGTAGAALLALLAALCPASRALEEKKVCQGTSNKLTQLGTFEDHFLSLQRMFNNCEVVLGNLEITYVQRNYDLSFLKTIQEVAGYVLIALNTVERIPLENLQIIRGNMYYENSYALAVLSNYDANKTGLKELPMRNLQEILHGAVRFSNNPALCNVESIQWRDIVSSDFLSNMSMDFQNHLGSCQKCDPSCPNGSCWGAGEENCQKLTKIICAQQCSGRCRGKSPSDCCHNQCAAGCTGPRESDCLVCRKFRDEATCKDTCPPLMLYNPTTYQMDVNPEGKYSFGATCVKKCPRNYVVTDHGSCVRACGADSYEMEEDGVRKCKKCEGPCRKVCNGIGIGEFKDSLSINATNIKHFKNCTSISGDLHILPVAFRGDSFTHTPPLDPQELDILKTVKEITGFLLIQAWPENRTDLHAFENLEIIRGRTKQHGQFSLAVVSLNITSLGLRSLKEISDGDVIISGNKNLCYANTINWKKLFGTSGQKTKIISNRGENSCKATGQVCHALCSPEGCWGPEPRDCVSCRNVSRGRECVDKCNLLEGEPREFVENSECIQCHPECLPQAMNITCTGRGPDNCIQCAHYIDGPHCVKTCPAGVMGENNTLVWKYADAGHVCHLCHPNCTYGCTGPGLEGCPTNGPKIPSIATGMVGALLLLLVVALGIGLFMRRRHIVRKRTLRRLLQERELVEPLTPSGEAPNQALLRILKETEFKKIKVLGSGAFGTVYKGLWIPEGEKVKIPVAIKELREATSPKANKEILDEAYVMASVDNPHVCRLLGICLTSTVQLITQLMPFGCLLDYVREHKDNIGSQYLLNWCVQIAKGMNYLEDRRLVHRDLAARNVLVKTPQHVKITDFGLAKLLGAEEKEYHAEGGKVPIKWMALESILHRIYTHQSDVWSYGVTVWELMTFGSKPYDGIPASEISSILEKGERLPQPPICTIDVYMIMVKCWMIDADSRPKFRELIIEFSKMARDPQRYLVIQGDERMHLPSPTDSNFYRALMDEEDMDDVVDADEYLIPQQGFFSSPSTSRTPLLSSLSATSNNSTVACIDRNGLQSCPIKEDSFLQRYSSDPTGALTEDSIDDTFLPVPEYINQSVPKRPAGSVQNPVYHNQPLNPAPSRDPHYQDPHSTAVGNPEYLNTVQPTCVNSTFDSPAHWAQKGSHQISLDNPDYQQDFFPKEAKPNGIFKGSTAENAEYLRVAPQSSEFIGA
readout-type: IC50 (µM)

I: Oc1cccc(C=Nc2ccccc2O)c1
II: Oc1ccc(N=Cc2cccc(O)c2)cc1
Select one: I or II . Criterion: greater recorded IC50. Your answer should be the label of the entry you select. I
